# TARGET OR SYSTEM: T1, human ROR2 expressed on the cell surface (human, UniProt Q01974 34-943)
# T1 construct: Endogenous ROR2 of human tumour cell lines; also called cell surface ROR2; ROR2 on tumour cell lines
# T1 sequence (Q01974 34-943 limits assumed): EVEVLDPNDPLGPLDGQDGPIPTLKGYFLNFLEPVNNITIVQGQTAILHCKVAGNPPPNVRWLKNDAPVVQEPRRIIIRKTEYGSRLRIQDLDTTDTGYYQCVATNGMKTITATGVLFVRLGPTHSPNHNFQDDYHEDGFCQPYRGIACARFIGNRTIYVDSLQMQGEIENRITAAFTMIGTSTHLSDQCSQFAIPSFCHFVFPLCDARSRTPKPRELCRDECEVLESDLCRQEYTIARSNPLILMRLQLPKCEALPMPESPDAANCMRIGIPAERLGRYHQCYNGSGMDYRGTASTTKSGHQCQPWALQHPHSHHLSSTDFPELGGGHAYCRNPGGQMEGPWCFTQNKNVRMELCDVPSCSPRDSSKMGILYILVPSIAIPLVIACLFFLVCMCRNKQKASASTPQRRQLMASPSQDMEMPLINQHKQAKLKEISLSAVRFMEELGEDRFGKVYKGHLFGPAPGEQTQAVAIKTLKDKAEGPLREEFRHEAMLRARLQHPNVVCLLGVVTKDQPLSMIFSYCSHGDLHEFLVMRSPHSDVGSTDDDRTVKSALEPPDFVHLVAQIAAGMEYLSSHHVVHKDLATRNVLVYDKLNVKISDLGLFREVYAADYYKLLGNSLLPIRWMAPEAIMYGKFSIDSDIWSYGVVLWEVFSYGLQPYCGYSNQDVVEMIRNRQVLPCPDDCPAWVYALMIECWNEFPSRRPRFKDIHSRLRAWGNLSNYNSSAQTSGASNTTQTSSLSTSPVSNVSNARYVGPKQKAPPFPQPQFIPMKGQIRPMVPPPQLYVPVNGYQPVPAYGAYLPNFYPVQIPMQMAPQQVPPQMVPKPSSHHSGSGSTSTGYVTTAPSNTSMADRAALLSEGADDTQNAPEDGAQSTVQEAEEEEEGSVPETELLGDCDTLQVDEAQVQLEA
# ASSAY INFO: flow cytometry, HTB26 (MDA-MB-231) cells (breast CA)
# Parameters: unit not given here
OBSERVABLE: binding intensity

Reported binding intensity, binder ROR2-240 full length human IgG1 antibody (antibody, V domains shown, also called clone #240 IgG1) VH: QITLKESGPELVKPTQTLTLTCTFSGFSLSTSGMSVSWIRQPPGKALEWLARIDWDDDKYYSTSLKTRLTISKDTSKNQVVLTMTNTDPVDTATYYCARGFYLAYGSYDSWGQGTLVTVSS VL: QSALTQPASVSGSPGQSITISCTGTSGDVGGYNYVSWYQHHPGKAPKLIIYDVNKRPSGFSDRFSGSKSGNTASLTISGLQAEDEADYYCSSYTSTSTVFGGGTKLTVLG : ____
4

Reported binding intensity, binder ROR2-241 full length human IgG1 antibody (antibody, V domains shown) VH: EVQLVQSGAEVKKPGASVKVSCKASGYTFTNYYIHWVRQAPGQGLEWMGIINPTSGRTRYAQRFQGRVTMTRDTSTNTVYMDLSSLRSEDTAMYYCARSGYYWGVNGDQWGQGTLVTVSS VL: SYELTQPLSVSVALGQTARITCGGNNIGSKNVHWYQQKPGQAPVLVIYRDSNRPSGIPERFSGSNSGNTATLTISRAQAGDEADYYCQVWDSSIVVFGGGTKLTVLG : ____
23

Reported binding intensity, binder ROR2-27 full length human IgG1 antibody (antibody, V domains shown, also called clone #27; clone #027 IgG1) VH: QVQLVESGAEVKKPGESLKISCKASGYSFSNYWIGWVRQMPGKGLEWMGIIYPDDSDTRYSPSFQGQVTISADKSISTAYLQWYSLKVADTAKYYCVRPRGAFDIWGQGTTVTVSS VL: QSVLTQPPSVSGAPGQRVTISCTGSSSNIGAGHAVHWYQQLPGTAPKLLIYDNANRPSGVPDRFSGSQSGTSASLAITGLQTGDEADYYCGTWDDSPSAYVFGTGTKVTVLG : ____
7

Reported binding intensity, binder ROR2-23 full length human IgG1 antibody (antibody, V domains shown, The light chain of clone 023 is labelled kappa; also called clone #23; clone #023 IgG1) VH: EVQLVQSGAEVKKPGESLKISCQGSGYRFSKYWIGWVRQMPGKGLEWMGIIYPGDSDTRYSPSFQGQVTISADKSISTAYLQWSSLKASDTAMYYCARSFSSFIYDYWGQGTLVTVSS VL: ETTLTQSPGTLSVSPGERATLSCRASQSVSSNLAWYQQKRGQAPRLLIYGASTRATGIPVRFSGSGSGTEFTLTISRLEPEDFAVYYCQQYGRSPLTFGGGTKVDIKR : ____
11
